Read-out: Matrix Metallopeptidase 1 (MMP1), MMP1 (gene 4312)
EXPERIMENT SUMMARY: BSK_hDFCGF_MMP1: BioMAP Diversity Plus: hDFCGF Assay for Matrix Metallopeptidase 1 (MMP1) Biomarker Activity (AID 2283064)
SETUP CONDITIONS: primary human foreskin fibroblasts; actives raise or lower the signal
The source made the active and inactive calls. How the source made its calls: active means hit-call score of the fitted dose curve at least 0.9, where 1 is the maximum; inactive means score below 0.9.
Possible outcomes: active, inactive

COMPOUND	CLASS
C#C[C@]1(O)CC[C@H]2[C@@H]3CCc4cc(OC)ccc4[C@H]3CC[C@@]21C	inactive
FC(F)(F)C(F)(F)C(F)(F)C(F)(F)C(F)(F)C(F)(F)CC1CO1 (stereo not drawn)	inactive
O=C(O)C(F)(F)C(F)(F)C(F)(F)F	inactive
OCCCC(F)(F)C(F)(F)C(F)(F)F	inactive
N=C(N)C(F)(F)C(F)(F)C(F)(F)C(F)(F)C(F)(F)C(F)(F)C(F)(F)F	inactive
CCCCCCCOC(=O)c1ccccc1C(=O)OCCCCCCC	inactive
O=P(O)(O)OCCC(F)(F)C(F)(F)C(F)(F)C(F)(F)C(F)(F)C(F)(F)F	inactive
O=C(O)C=C(C(F)(F)F)C(F)(F)F	inactive
O=C(O)C(F)(F)C(F)(F)C(F)F	inactive
O=C(O)C(F)(F)C(F)(F)C(F)(F)C(F)(F)C(F)(F)C(F)(F)C(F)(F)C(F)(F)C(F)(F)C(F)(F)C(F)(F)C(F)(F)C(F)(F)F	inactive
C=CC(F)(F)C(F)(F)C(F)(F)C(F)(F)C(F)(F)C(F)(F)C(F)(F)C(F)(F)C=C	inactive
O=C(Cl)C(F)(F)C(F)(F)C(F)(F)C(F)(F)C(F)(F)C(F)(F)C(F)(F)C(F)(F)F	inactive
CCCCCCCCC(F)(F)C(F)(F)C(F)(F)C(F)(F)C(F)(F)C(F)(F)F	inactive
O=C(CC(=O)C(F)(F)C(F)(F)F)C(F)(F)F	inactive
CCCCCCC(C)OC(=O)CCCCC(=O)OC(C)CCCCCC (stereo not drawn)	inactive
COC(=O)CCC(F)(F)C(F)(F)C(F)(F)C(F)(F)F	inactive
O=S(=O)(OCCOC(F)(F)F)C(F)(F)F	inactive
O=C(O)C(F)(F)C(F)(F)F	inactive
FC(F)(F)C(F)(F)C(F)(F)C(F)(F)CCI	inactive
O=S(=O)(OCC(F)F)C(F)(F)F	inactive
CCCCCCOC(=O)c1ccccc1O	active
FC(F)(F)C(F)(F)CNCC(F)(F)C(F)(F)F	inactive
O=C(O)C(F)(F)C(F)(F)OC(F)(F)F	inactive
C=CC/C=C/C/C=C/C/C=C/C	active
OCC(F)(F)C(F)(F)C(F)(F)C(F)F	inactive
NC(=O)C(F)(F)C(F)(F)C(F)(F)C(F)(F)F	inactive
CCc1c(Br)c(Br)c(Br)c(Br)c1Br	inactive
CO[Si](OC)(c1ccccc1)c1ccccc1	inactive
CCO[Si](CCC(F)(F)C(F)(F)C(F)(F)C(F)(F)C(F)(F)C(F)(F)F)(OCC)OCC	inactive
Nc1ccc([N+](=O)[O-])cc1O	inactive
FC(F)(F)C(F)(F)C(F)(F)CI	inactive
OCC(F)(F)C(F)(F)C(F)(F)F	inactive
O[Si](c1ccccc1)(c1ccccc1)c1ccccc1	inactive

---

SYSTEM NAME: Nuclear receptor subfamily 1 group I member 2 (Homo sapiens) (UniProt O75469)
Sequence (O75469 whole entry, looked up): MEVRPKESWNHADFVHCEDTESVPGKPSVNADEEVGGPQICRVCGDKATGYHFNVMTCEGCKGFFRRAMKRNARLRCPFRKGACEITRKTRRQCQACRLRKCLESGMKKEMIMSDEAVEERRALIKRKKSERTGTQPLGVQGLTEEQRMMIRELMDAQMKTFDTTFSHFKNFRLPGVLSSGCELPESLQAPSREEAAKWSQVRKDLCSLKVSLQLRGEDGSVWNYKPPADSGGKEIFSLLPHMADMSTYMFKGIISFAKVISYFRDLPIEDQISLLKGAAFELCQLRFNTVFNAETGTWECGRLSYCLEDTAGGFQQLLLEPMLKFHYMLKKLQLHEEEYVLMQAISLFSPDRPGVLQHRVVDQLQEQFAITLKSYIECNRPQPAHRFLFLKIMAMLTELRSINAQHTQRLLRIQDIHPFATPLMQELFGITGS
EXPERIMENT SUMMARY: NVS_NR_hPXR: NovaScreen (NVS) Nuclear Receptor Binding Assay for human Pregnane X Receptor (PXR) (AID 2283365);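 further: a drop in FRET signal versus DMSO baseline means the compound binds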
Inconclusive results are not listed. Calls of active or inactive are those of the source. How the source made its calls: active means hit-call score of the fitted dose curve at least 0.9, where 1 is the maximum; inconclusive means response in the unintended direction; inactive means score below 0.9.
Possible outcomes: active, inactive

COMPOUND	SYSTEM NAME	CLASS
O=C(OCCOCCOCCOC(=O)c1ccccc1)c1ccccc1	Nuclear receptor subfamily 1 group I member 2 (Homo sapiens) (UniProt O75469)	inactive
CCN(Cc1cccc(S(=O)(=O)O)c1)c1ccc(C(=C2C=CC(=[N+](CC)Cc3cccc(S(=O)(=O)O)c3)C=C2)c2ccc(O)cc2S(=O)(=O)[O-])cc1	Nuclear receptor subfamily 1 group I member 2 (Homo sapiens) (UniProt O75469)	active
Cc1ccc(S(=O)(=O)NCl)cc1	Nuclear receptor subfamily 1 group I member 2 (Homo sapiens) (UniProt O75469)	inactive
CNC(=S)NC	Nuclear receptor subfamily 1 group I member 2 (Homo sapiens) (UniProt O75469)	inactive
COC(=O)C1CCC(C(=O)OC)CC1 (stereo not given)	Nuclear receptor subfamily 1 group I member 2 (Homo sapiens) (UniProt O75469)	inactive
